Values from patent US8053583B2

Endpoint label: melting point

CCCN(CCC)CCC(=O)Nc1cccc2c1C(=O)c1c(NC(=O)CCN(CCC)CCC)cccc1C2=O :: 129 to 130 °C

// for each compound below, give its melting point
1. COC(=O)[C@H](CC(C)C)NCC(=O)Nc1cccc2c1C(=O)c1c(NC(=O)CN[C@H](CC(C)C)C(=O)OC)cccc1C2=O
2. CNCCC(=O)Nc1cccc2c1C(=O)c1c(NC(=O)CCNC)cccc1C2=O

### Response
1: 238 to 239 °C; 2: 233 to 234 °C
